tested on: melanoma cell lines; test: Cell based assay, cell viability (CellTiter-Glo), melanoma cell lines; settings: Homo sapiens; LOX-IMVI cell line
Listing of entries alongside the reported IC50.

CC(=O)c1c([S+]([O-])Cc2ccc(S(F)(F)(F)(F)F)cc2)[nH]c2c(F)ccc(F)c2c1=O (stereo not drawn) ... > 2000 nM

Assign IC50 to the following record: COc1cccc2[nH]c([S+]([O-])Cc3cc(C)on3)c(C(C)=O)c(=O)c12 (stereo not drawn) > 2000 nM

Using known records, supply IC50 for CC(=O)c1c([S+]([O-])Cc2cc(F)cc(S(F)(F)(F)(F)F)c2)[nH]c2c(Br)ccc(Cl)c2c1=O (stereo not drawn) 1370 nM

Provide one value: measured IC50 of CC(=O)c1c([S+]([O-])C(C)C)[nH]c2c(Br)ccc(Cl)c2c1=O (stereo not drawn) > 2000 nM

Return reported IC50. Input molecule: `CSc1c(C(C)=O)c(=O)c2c(Cl)ccc(Br)c2n1S(=O)(=O)c1ccc(C(C)(C)C)cc1` > 2000 nM

----------
test system: ovarian cancer cell lines; experiment: Cell based assay, cell viability (CellTiter-Glo), ovarian cancer cell lines; conditions: Homo sapiens; OVCAR-3 cells
Reported endpoint: pIC50
// returns pIC50 (minus log10 of molar concentration), number only

Worked cases, pIC50 given:
COc1cccc2[nH]c([S+]([O-])Cc3cc(C)on3)c(C(C)=O)c(=O)c12 (stereo not shown) ... 5.96
CC(=O)c1c([S+]([O-])Cc2ccc(S(F)(F)(F)(F)F)cc2F)[nH]c2c(Br)ccc(Cl)c2c1=O (stereo not shown) ... 5.95

Now for another entry.
Look up and report pIC50, with ovarian cancer cell lines as system, for CC(=O)c1c([S+]([O-])Cc2cccc(C#N)c2)[nH]c2c(Br)ccc(Cl)c2c1=O (stereo not shown) 6.16

----------
Known IC50 of a selection of molecules
system: lung cancer cell lines (e.g. NCI-H23, NCI-H1229); experiment: Cell based assay, cell viability (CellTiter-Glo), lung cancer cell lines; details: Homo sapiens; MRC-5 cells; 72 hours treatment; CellTiter-Glo; read-out: IC50

Please report IC50 with lung cancer cell lines (e.g. NCI-H23, NCI-H1229) for item CC(=O)c1c([S+]([O-])Cc2ccccc2)nc2c(Br)ccc(Cl)c2c1O (stereo not drawn) [Compound 4] . 910 nM

Answer briefly: IC50 recorded on lung cancer cell lines (e.g. NCI-H23, NCI-H1229) for CC(=O)c1c(SCc2ccc(Cl)cc2)[nH]c2c(Br)ccc(Cl)c2c1=O [Compound 10] > 2000 nM

Provide IC50, recorded with lung cancer cell lines (e.g. NCI-H23, NCI-H1229), of COc1ccccc1Sc1[nH]c2c(Br)ccc(Cl)c2c(=O)c1C(C)=O [Compound 14] > 2000 nM

----------
test system: prostate cancer cell lines (e.g. DU145/TXR); experiment: Cell based assay, cell viability (CellTiter-Glo), prostate cancer cell lines; conditions: Homo sapiens, DU-145, DU145 cells, 72 hours treatment, final concentration 0 to 2 μM, read-out: IC50, prostate cancer cell line DU145
Reported endpoint: IC50

Cc1cc(C[S+]([O-])c2[nH]c3c(Cl)ccc(Cl)c3c(=O)c2C(=O)C(C)C)no1 (centres unmarked) ... 1310 nM

Please report the measured IC50 for CC(=O)c1c([S+]([O-])Cc2ccccc2)nc2c(Br)ccc(Cl)c2c1O (centres unmarked) 1410 nM

Give recorded IC50. CCS(=O)(=O)n1c([S+](C)[O-])c(C(C)=O)c(=O)c2c(Cl)ccc(Br)c21 (centres unmarked) > 2000 nM

Quote IC50 reported for `CC(=O)c1c(SCc2ccc(Cl)cc2)[nH]c2c(Br)ccc(Cl)c2c1=O` please. > 2000 nM

Supply measured IC50 of CC(=O)c1c([S+]([O-])Cc2ccc(C(F)(F)F)nc2C)[nH]c2c(Br)ccc(Cl)c2c1=O (centres unmarked) in your reply. 1650 nM

Identify measured IC50 corresponding to CC(=O)c1c([S+](C)[O-])n(C(C)=O)c2c(Br)ccc(Cl)c2c1=O (centres unmarked) > 2000 nM

State its IC50 for this compound: `CC(=O)c1c(SCc2ccccc2)n(C(=O)c2ccc(Br)cc2)c2c(Br)ccc(Cl)c2c1=O` > 2000 nM

Hello, please tell me recorded IC50 for this one: CC(=O)c1c([S+]([O-])Cc2ccc([N+](=O)[O-])cc2)[nH]c2c(Cl)ccc(Cl)c2c1=O (centres unmarked) > 2000 nM

----------
Entries and their measured IC50 follow.
test system: pancreatic cancer cell lines (e.g. MIA PaCa-2); test: Cell based assay, cell viability (CellTiter-Glo), pancreatic cancer cell lines; conditions: Homo sapiens, pancreatic cancer cell line Capan-1, 72 hours, read-out: IC50, Capan-1
Field format: number, assumed nM, no unit text.

Cc1cc(C[S+]([O-])c2[nH]c3c(Br)ccc(Cl)c3c(=O)c2C(=O)C(C)C)no1 (stereo not shown) [Compound 95] ... 1250

Return IC50 for the following compound: Cc1cc(C[S+]([O-])c2[nH]c3c(Cl)ccc(Cl)c3c(=O)c2C(=O)C2CC2)no1 (stereo not shown) [Compound 97] 1520

----------
test system: melanoma cell lines; experiment: Cell based assay, cell viability (CellTiter-Glo), melanoma cell lines; conditions: Homo sapiens; LOX-IMVI cell line
pIC50: −log10 of the molar value.
Reported endpoint: pIC50

Sample records with pIC50:
COc1cc(S(F)(F)(F)(F)F)ccc1C[S+]([O-])c1[nH]c2c(Br)ccc(Cl)c2c(=O)c1C(C)=O (stereo not shown) ... 5.98
CC(=O)c1c([S+]([O-])Cc2ccc(SC(F)(F)F)cc2)[nH]c2c(Br)ccc(Cl)c2c1=O (stereo not shown) ... 5.96
CSc1c(C(C)=O)c(=O)c2cc(F)ccc2n1C ... < 5.70
CC(=O)c1c([S+]([O-])Cc2cnc3[nH]ccc3c2)[nH]c2c(Br)ccc(Cl)c2c1=O (stereo not shown) ... < 5.70
CC(=O)c1c([S+]([O-])Cc2cc(C)on2)[nH]c2c(F)ccc(F)c2c1=O (stereo not shown) ... < 5.70

State its pIC50 for this molecule: CC(=O)c1c([S+]([O-])Cc2ccccc2)nc2c(Br)ccc(Cl)c2c1O (stereo not shown) < 5.70

Dear colleague, please send me the reported pIC50 for `CC(=O)c1c(SCc2cccc(I)c2)[nH]c2c(Br)ccc(Cl)c2c1=O` when you can. < 5.70
